target: Pro-neuregulin-1, membrane-bound isoform (Homo sapiens) (UniProt Q02297); test: NRG1 binders on small-molecule microarrays, primary screen, psychiatric disease protein project, biochemical, small-molecule microarray, fluorescence 635/667 (AID 1075); settings: NRG1 binding, 635 nm fluorescence, higher = more signal;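 also: score combines 667 nm spot fluorescence with signal to noise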
Sequence (Q02297 whole entry, looked up, canonical isoform): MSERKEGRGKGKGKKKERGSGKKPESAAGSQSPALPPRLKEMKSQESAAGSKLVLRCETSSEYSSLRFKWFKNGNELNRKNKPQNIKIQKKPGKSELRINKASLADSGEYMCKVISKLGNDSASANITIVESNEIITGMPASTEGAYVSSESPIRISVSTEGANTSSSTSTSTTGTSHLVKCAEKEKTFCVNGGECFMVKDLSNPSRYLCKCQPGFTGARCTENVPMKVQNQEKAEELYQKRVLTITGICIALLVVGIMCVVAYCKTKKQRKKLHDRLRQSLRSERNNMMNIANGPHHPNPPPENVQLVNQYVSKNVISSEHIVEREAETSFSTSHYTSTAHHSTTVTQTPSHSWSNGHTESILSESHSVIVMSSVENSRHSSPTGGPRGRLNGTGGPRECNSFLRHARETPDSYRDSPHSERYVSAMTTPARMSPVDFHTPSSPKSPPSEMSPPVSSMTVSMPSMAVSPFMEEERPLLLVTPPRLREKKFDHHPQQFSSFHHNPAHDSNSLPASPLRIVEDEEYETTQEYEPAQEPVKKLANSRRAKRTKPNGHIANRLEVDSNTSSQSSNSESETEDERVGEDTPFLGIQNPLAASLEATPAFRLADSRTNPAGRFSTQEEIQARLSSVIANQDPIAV
Quick reference for composite z-score among some compounds
measure: composite z-score

{"input_smiles": "COC(=O)[C@@]1(Cc2ccccc2)[C@@H]2[C@@H](CC(=O)[C@H]2CC(=O)C(=O)N(C)C)CN1C(=O)c1ccccc1", "value": 1.89}
{"input_smiles": "Cc1ccc(F)cc1S(=O)(=O)N[C@@H]1CCN(Cc2ccc3[nH]ccc3c2)C1", "value": 0.91}
{"input_smiles": "NC(=O)NCC#Cc1ccc2c(c1)[C@]1(C(=O)N2)[C@H](C(=O)N2CCCCCCC2)[C@H]2C(=O)O[C@H](c3ccccc3)[C@H](c3ccccc3)N2[C@@H]1c1ccc(O)cc1", "value": 0.94}
{"input_smiles": "[N-]=[N+]=NCc1ccccc1[C@H]1OC(c2ccc(OCCCO)cc2)=N[C@@]1(Cc1ccccc1)C(=O)N1CCOCC1", "value": 1.39}
{"input_smiles": "CC(C)CNC(=O)[C@@]1(C)c2ccccc2C(=O)N(Cc2cc(F)cc(C(F)(F)F)c2)[C@H]1c1ccc(CO)cc1", "value": 0.669}
{"input_smiles": "CN(C)CCCC[C@@H]1NC(=O)[C@H]2C[C@@H](C(=O)O)[C@@H](c3cccc(OCCO)c3)N2C1=O", "value": 0.212}
{"input_smiles": "O=C1c2ccccc2[C@](Cc2ccccc2I)(C(=O)O)[C@H](c2ccc(CO)cc2)N1Cc1ccccc1", "value": 1.51}

* * *

target: Carbonic anhydrase 2 (Homo sapiens); test: CAII small-molecule binders, profiling panel, biochemical, small-molecule microarray, Alexa647-labelled CAII (AID 1122); conditions: CAII-A647 binding fluorescence, higher = more signal
Quick reference for composite z-score among some compounds
measure: composite z-score

{"compound": "NCCCC[C@@H]1NC(=O)[C@H]2C[C@@H](C(=O)NCc3ccc(F)cc3)[C@@H](c3cccc(OCCO)c3)N2C1=O", "measurement_target": "Carbonic anhydrase 2 (Homo sapiens)", "measure": "composite z-score", "value": 0.549}
{"compound": "COC(=O)c1c(CC[C@@H](CO)NC(=O)N[C@@H](Cc2ccccc2)Cn2cc(-c3cncn3C)nn2)oc(C(C)=O)c1C(=O)OC", "measurement_target": "Carbonic anhydrase 2 (Homo sapiens)", "measure": "composite z-score", "value": 0.648}
{"compound": "O=C1NC(=O)C2C1C=CC(C(O)c1cccc(O)c1)N2Nc1ccc(Cl)cc1Cl (stereo not drawn)", "measurement_target": "Carbonic anhydrase 2 (Homo sapiens)", "measure": "composite z-score", "value": 0.757}
{"compound": "C=CCC(OC(C)=O)[C@@H]1[C@@H](N(Cc2cccc3ccccc23)C(=O)c2cccc3ccccc23)c2cc(OCCCO)ccc2N1C(=O)Cc1ccc2ccccc2c1 (stereo partly drawn)", "measurement_target": "Carbonic anhydrase 2 (Homo sapiens)", "measure": "composite z-score", "value": -0.272}
{"compound": "CC(C)C[C@@H]1NC(=O)[C@H]2C[C@@H](C(=O)NCCCCCCNC(=O)CS)[C@@H](c3ccc(O)cc3)N2C1=O", "measurement_target": "Carbonic anhydrase 2 (Homo sapiens)", "measure": "composite z-score", "value": 0.665}
{"compound": "COCCOC(=O)N1C(=O)[C@@]2(c3ccccc31)[C@H](C(=O)N1CCCCCCC1)[C@H]1C(=O)O[C@H](c3ccccc3)[C@H](c3ccccc3)N1[C@@H]2c1ccc(O)cc1", "measurement_target": "Carbonic anhydrase 2 (Homo sapiens)", "measure": "composite z-score", "value": 0.608}
{"compound": "CN(C)CCCCNC(=O)[C@H]1C[C@H]2C(=O)N[C@@H](Cc3ccccc3)C(=O)N2[C@H]1c1cccc(OCCO)c1", "measurement_target": "Carbonic anhydrase 2 (Homo sapiens)", "measure": "composite z-score", "value": 0.627}
{"compound": "CCOC(=O)C1=CC[C@@H](c2ccccc2)N(S(=O)(=O)C[Si](C)(C)C)[C@H]1c1ccccc1", "measurement_target": "Carbonic anhydrase 2 (Homo sapiens)", "measure": "composite z-score", "value": 0.605}
{"compound": "C=CC(CO)NC(=O)OCC1c2ccccc2-c2ccccc21 (stereo not drawn)", "measurement_target": "Carbonic anhydrase 2 (Homo sapiens)", "measure": "composite z-score", "value": -0.192}
{"compound": "COCCOC(=O)N1C(=O)[C@@]2(c3cc(C#CCCO)ccc31)[C@H](c1ccccc1OCCO)N1[C@H](c3ccccc3)[C@H](c3ccccc3)OC(=O)[C@H]1[C@@H]2C(=O)N1CCc2cc(OC)c(OC)cc2C1", "measurement_target": "Carbonic anhydrase 2 (Homo sapiens)", "measure": "composite z-score", "value": 0.4}
{"compound": "C=CCN1C(=O)[C@]2(O[C@H](CCn3cc([C@H](O)c4ccccc4)nn3)[C@@H]([Si](C)(C)c3ccc(OC)cc3)[C@@H]2C)c2cc(N3C(=O)c4cccc5cccc3c45)ccc21", "measurement_target": "Carbonic anhydrase 2 (Homo sapiens)", "measure": "composite z-score", "value": 0.522}
{"compound": "CC(C)C(=C=CC[C@@H](O)c1ccccc1OCCO)C[C@@H](O)c1cc(Cl)cc(Cl)c1O", "measurement_target": "Carbonic anhydrase 2 (Homo sapiens)", "measure": "composite z-score", "value": 0.68}
{"compound": "O=C1C2C=CC(C(O)C(c3ccccc3)c3ccccc3)N(Nc3ccccc3)C2C(=O)N1c1ccccc1 (stereo not drawn)", "measurement_target": "Carbonic anhydrase 2 (Homo sapiens)", "measure": "composite z-score", "value": 0.619}
{"compound": "C=CC[C@]1(C(=O)NCc2ccccc2)COC(c2ccc(OCCCO)cc2)=N1", "measurement_target": "Carbonic anhydrase 2 (Homo sapiens)", "measure": "composite z-score", "value": 0.84}
{"compound": "C=CCC(OC(C)=O)[C@@H]1[C@@H](N(Cc2ccc(-c3cccc(C(F)(F)F)c3)o2)C(=O)Cc2ccc(OC)cc2)c2cc(OCCCO)ccc2N1C(=O)c1ccc2ccccc2n1 (stereo partly drawn)", "measurement_target": "Carbonic anhydrase 2 (Homo sapiens)", "measure": "composite z-score", "value": -0.165}
{"compound": "CC1CC/C=C\\[C@H]2OC34C=CCN(CCN5CCOCC5)C(=O)[C@H]3N(CCCCCCO)C(=O)[C@@H]4C2C(=O)O1 (stereo partly drawn)", "measurement_target": "Carbonic anhydrase 2 (Homo sapiens)", "measure": "composite z-score", "value": 0.864}
{"compound": "Cc1c(-c2ccc(-c3ccc(Cl)c(Cl)c3)o2)nc(-c2ccccc2)c2c1CO[Si]2(C(C)C)C(C)C", "measurement_target": "Carbonic anhydrase 2 (Homo sapiens)", "measure": "composite z-score", "value": 0.181}
{"compound": "COc1ccc([Si](C)(C)[C@H]2[C@H](CCO)O[C@@]3(C(=O)N(Cc4ccc(N5CCOC5=O)cc4)c4ccccc43)[C@@H]2C)cc1", "measurement_target": "Carbonic anhydrase 2 (Homo sapiens)", "measure": "composite z-score", "value": 0.417}
{"compound": "CC(c1ccccc1)C(O)C1C=CC2C(=O)N(c3ccccc3)C(=O)C2N1Nc1ccc(C#N)cc1 (stereo not drawn)", "measurement_target": "Carbonic anhydrase 2 (Homo sapiens)", "measure": "composite z-score", "value": 0.6}
{"compound": "CCCCCCCCCCC(O)C1C=CC2C(=O)N(C)C(=O)C2N1N1CCCCC1 (stereo not drawn)", "measurement_target": "Carbonic anhydrase 2 (Homo sapiens)", "measure": "composite z-score", "value": -0.284}
{"compound": "COCCOC(=O)N1C(=O)[C@@]2(c3cc(C#CC4=CCCCC4)ccc31)[C@H](C(=O)N1CCc3cc(OC)c(OC)cc3C1)[C@H]1C(=O)O[C@H](c3ccccc3)[C@H](c3ccccc3)N1[C@@H]2c1ccc(O)cc1", "measurement_target": "Carbonic anhydrase 2 (Homo sapiens)", "measure": "composite z-score", "value": 0.267}
{"compound": "CCCC[C@@H]1C[C@H]1[C@@H](NC(=O)c1ccc(C(F)(F)F)cc1)c1ccc(C(=O)OC)cc1", "measurement_target": "Carbonic anhydrase 2 (Homo sapiens)", "measure": "composite z-score", "value": 0.441}
{"compound": "COc1ccc([Si](C)(C)[C@H]2[C@H](CC(=O)N3Cc4ccccc4C[C@H]3CO)O[C@@]3(C(=O)N(Cc4cccc(N5C(=O)c6cccc7cccc5c67)c4)c4ccccc43)[C@@H]2C)cc1", "measurement_target": "Carbonic anhydrase 2 (Homo sapiens)", "measure": "composite z-score", "value": 0.295}
{"compound": "CN(C)C(=O)[C@]1(Cc2ccccc2)N=C(c2ccc(OCCCO)cc2)O[C@@H]1c1ccccc1", "measurement_target": "Carbonic anhydrase 2 (Homo sapiens)", "measure": "composite z-score", "value": 0.687}
{"compound": "Cc1ccccc1C(O)C1C=CC2C(=O)N(c3ccccc3)C(=O)C2N1Nc1ccccc1F (stereo not drawn)", "measurement_target": "Carbonic anhydrase 2 (Homo sapiens)", "measure": "composite z-score", "value": 0.77}
{"compound": "COc1ccc(C#Cc2ccc3c(c2)[C@]2(C(=O)N3)[C@H](C(=O)Nc3nc4ccccc4s3)[C@H]3C(=O)O[C@H](c4ccccc4)[C@H](c4ccccc4)N3[C@@H]2c2ccc(OCCO)cc2)cc1", "measurement_target": "Carbonic anhydrase 2 (Homo sapiens)", "measure": "composite z-score", "value": 0.622}
{"compound": "CN1C(=O)[C@]2(CCC(=O)OC(C)(C)C)N=C(c3ccc(OCCCO)cc3)O[C@@H]2c2ccccc21", "measurement_target": "Carbonic anhydrase 2 (Homo sapiens)", "measure": "composite z-score", "value": 0.709}
{"compound": "O=C1O[C@H](c2ccccc2)[C@H](c2ccccc2)N2[C@H]1[C@@H](C(=O)NC[C@H](O)c1ccccc1)[C@]1(C(=O)Nc3ccc(C#CCCO)cc31)[C@H]2c1ccccc1OCCO", "measurement_target": "Carbonic anhydrase 2 (Homo sapiens)", "measure": "composite z-score", "value": 0.597}
